Provenance of the data: PubChem BioAssay (NCI)

- System: RXF 393 renal
- assay explanation: NCI-60 one-dose screen, 48 h
- recorded conditions: 10 µM unless noted
This is part of a sample that, as a whole, favours compounds with a hit. Of some 83,000 tested, about 20% had one in any assay. Calls of active or inactive are those of the source. Rule for the calls: active = growth percent below 10; inactive = the rest.
Field 'call' accepts true = active, false = inactive

COc1ccc(NC(=O)CCCCCCNC(=O)C(O)(O)C(F)(F)F)cc1 :: true
CN(C)CCCOc1ccc(C(=C(c2ccccc2)C2CCCC2)c2ccc(OCCCN(C)C)cc2)cc1 :: true
CC(C)(C)OC(=O)Nc1ccc(-c2cccc(Oc3ccc4nnc(Cl)n4n3)c2)cc1 :: false
C#CCOc1ccccc1C(OC(=O)c1ccccc1)C(=O)NC(C)(C)C(C)(C)C (stereo not given) :: false

Incoming: Give the logged outcome of this assay for the following compound: `C[C@]12CC[C@H]3[C@@H](CC=C4C[C@@H](O)CC[C@@]43C)[C@@H]1CC[C@@H]2[C@](C)(O)CCc1cccnc1`
Outgoing: false

Incoming: Write down the call the test reported for this compound. Item: `O=S(=O)(NCCCNc1nccc(-c2[nH]c(-c3ccccc3)nc2-c2ccc(F)c(O)c2)n1)c1cccc(F)c1`
Outgoing: false

Incoming: // return assay outcome for `Brc1ccc(-c2cc(-c3ccc4c(c3)OC=CO4)n[nH]2)s1`
Outgoing: false

Incoming: Recorded test call requested for `CNc1sc(S(=O)(=O)NC)nc1S(=O)(=O)c1ccc(C)cc1`
Outgoing: false

Incoming: Call for entry `Cc1csc(/N=C(N)/N=C(\N)c2cccs2)n1` :
Outgoing: false

Incoming: Could you check what this test reported for `C#CCN(C)CCCOc1ccc(NC(=O)CCCCCCC(=O)NO)cc1Cl` ?
Outgoing: true

---

- Test system: SR leukemia
- assay explanation: NCI-60 one-dose screen, 48 h (100 = growth as untreated, 0 = no growth, -100 = all killed)
- recorded conditions: 10 µM unless noted
This is part of a sample that, as a whole, favours compounds with a hit. Of some 83,000 tested, about 20% had one in any assay.
Doc: threshold 10% (exclusive). Items with growth beneath it return true (1); others return false (0).

COc1cc(C(=O)c2cc(C(C)=O)c3c(C)cccn23)cc(OC)c1OC :: false (0)
Cc1ccc(Nc2nc(SC(C)C)nc(-c3ccccc3)c2C#N)cc1 :: false (0)
C#C[C@]1(O)CC[C@H]2[C@@H]3CC=C4c5sc(N6CCN(C)CC6)nc5CC[C@]4(C)[C@H]3CC[C@@]21C :: true (1)
O=C(CCCCCCN1CC(=O)N2[C@@H](c3cccs3)c3[nH]c4ccccc4c3C[C@H]2C1=O)NO :: false (0)
CN1CCN(c2ccc(Nc3nc(NCCCNS(=O)(=O)c4cccc(F)c4)c4sccc4n3)cc2)CC1 :: true (1)

Incoming: Given CCCCCN1C(=O)/C(=c2\sc3n(c2=O)C2C(NN=3)N(CC)C(=O)N2CC)c2cccc(C)c21 (centres undefined) , is recorded growth strictly lower than 10%?
Outgoing: false (0)

Incoming: Quick check: does `CN1CCN(Cc2ccc(NC(=O)c3cncc(C#Cc4cnc5ccc(OCC(F)F)nn45)c3)cc2C(F)(F)F)CC1` have growth under 10%?
Outgoing: true (1)

Incoming: Identify whether the compound `Clc1ccc2c(N/N=C/c3c[nH]c4ccccc34)ccnc2c1` records growth below 10%.
Outgoing: true (1)

Incoming: Given `O=C(CSc1nc2ccccc2c(=O)n1-c1ccc(Cl)c(Cl)c1)Nc1ccc(S(=O)(=O)Nc2ccc(Cl)nn2)cc1` , is recorded growth strictly lower than 10%?
Outgoing: false (0)

---

- System: KM12 colon
- assay explanation: NCI-60 one-dose screen, 48 h (100 = growth as untreated, 0 = no growth, -100 = all killed)
- recorded conditions: 10 µM unless noted
This is part of a sample that, as a whole, favours compounds with a hit. Of some 83,000 tested, about 20% had one in any assay.
Assignment: determine reported growth for the given compounds.
One number for each entry, in %.

// below: answered compounds
CN1CCN(c2ccc(Nc3nc(NCCCNS(=O)(=O)c4cccc5ccccc45)c4sccc4n3)cc2)CC1 :: 4.02
Brc1ccc2[nH]cc(-c3nn4cc(-c5nccs5)nc4s3)c2c1 :: 21
CC(=O)OC[C@@]12Oc3c(cccc3-c3ccc(O)c4c3O[C@]3(COC(C)=O)C(=C4O)C(=O)C[C@H](C)[C@@H]3OC(C)=O)C(O)=C1C(=O)C[C@H](C)[C@@H]2OC(C)=O :: 8.74

Give growth for each of the items listed below.
1. C#Cc1nc(C(=O)NCCCCCCC(=O)NO)cs1
2. C#CCOc1ccccc1/C=N/Nc1nc(-c2ccc(Cl)cc2)cs1

Outgoing:
-7.86
91.4

---

Exercise: for every item that follows, state its recorded growth.
- System: OVCAR-5 ovarian
- assay explanation: NCI-60 one-dose screen, 48 h (100 = growth as untreated, 0 = no growth, -100 = all killed)
- recorded conditions: 10 µM unless noted
About 83,000 compounds went through this panel and 20% of them were active in at least one assay; those are over-represented in the sample as a whole. Active and inactive are the calls of the source. Rule for the calls: active = growth percent below 10; inactive = the rest.

O=c1nc(Nc2ccc([N+](=O)[O-])cc2O)sc2ccccc12 :: 47.4% (inactive)
Cc1ccc(N2CCN(C3=C(Cl)C(=O)c4ncccc4C3=O)CC2)cc1 :: 110% (inactive)

Could I get growth for every one of these entries?
1. NC1CC2(CCN(c3cnc(C(=O)Nc4cc(F)cc5cccnc45)cn3)CC2)C1
2. CC1=C(C)C(=O)C(Nc2cccc(C(F)(F)F)c2)=C(Br)C1=O
3. CN1CCN(c2ccc(Nc3nc(NCCCNS(=O)(=O)c4ccc(C(F)(F)F)cc4)c4sccc4n3)cc2)CC1

Outgoing:
85.9% (inactive)
128% (inactive)
-3% (active)

---

Field: growth. Provide a value for each of the compounds that follow.
- System: MDA-MB-231 breast
- assay explanation: NCI-60 one-dose screen, 48 h (100 = growth as untreated, 0 = no growth, -100 = all killed)
- recorded conditions: 10 µM unless noted
About 83,000 compounds went through this panel and 20% of them were active in at least one assay; those are over-represented in the sample as a whole.
Numbers only, in %.

Illustrative cases are given below, each with its answer.
CCCCCCNC(=O)Oc1ccc(/C(=C(/C)c2ccc(OC)cc2)c2ccc(OCCN3CCCCCC3)cc2)cc1 :: 6.27
CCS(=O)(=O)Nc1ccc(C(=O)CC2(O)C(=O)Nc3ccccc32)cc1 (centres undefined) :: 99.6
CC[C@H](CC[C@@H](C)[C@H]1CC[C@H]2[C@@H]3CC(=O)C4=CC(=O)/C(=C/c5ccc([N+](=O)[O-])cc5)C[C@]4(C)[C@H]3CC[C@]12C)C(C)C :: 98.2
Cc1ccc(C)c(NC2=C(Cl)C(=O)c3nc(C)ccc3C2=O)c1 :: -14.5
O=C(/C=C/c1cccc(Br)c1)c1cccc(OCCCCOc2cccc(C(=O)/C=C/c3cccc(Br)c3)c2)c1 :: 101

Working through the 4 compounds below one at a time, give growth for each.
1. C#Cc1cc(C(=O)Nc2ccc(CNCCN3CCOCC3)c(C(F)(F)F)c2)ccc1C
2. CC(C)(C)OC(=O)Nc1ccc(-c2cccc(Oc3ccc4nnc(Cl)n4n3)c2)cc1
3. Cc1ccc2c(n1)C(=O)C(Cl)=C(Nc1cccc(C)c1C)C2=O
4. O=c1[nH][nH]c(-c2ccc(F)cc2)c1-c1nc2ccccc2s1

Outgoing:
90.3
83.8
-1.12
85

---

Can you tell me growth for the items I'm about to list?
- System: OVCAR-4 ovarian
- assay explanation: NCI-60 one-dose screen, 48 h (100 = growth as untreated, 0 = no growth, -100 = all killed)
- recorded conditions: 10 µM unless noted
About 83,000 compounds went through this panel and 20% of them were active in at least one assay; those are over-represented in the sample as a whole.
Answers are plain numbers, in %.

CC(C)(C)c1cc(NC(=O)Nc2ccc(-c3cn4c5c(sc4n3)CCc3cn(CCCN4CCCCC4)cc3-5)cc2)no1 :: -78.4
COc1cc(C(=O)c2cc(C(C)=O)c3c(C)cccn23)cc(OC)c1OC :: 90.8
Cc1ccccc1Nc1nc(SC(C)C)nc(-c2ccccc2)c1C#N :: 13.4
CC(=O)c1cc(C(=O)N2c3ccccc3Sc3ccccc32)n2c1ccc1ccccc12 :: 78.1
CCCCCCOC(=O)c1cc(-c2ccc(F)cc2)nc2ccccc12 :: 101

Please give growth, item by item, for the list that follows.
1. CC(C)(C)Nc1nc2c(OCCc3ccccc3)cccn2c1-c1cccc(Oc2ccccc2)c1
2. CN(C)c1ccc(-c2cc(-c3c[nH]c4ccccc34)nc(N)c2C#N)cc1

Outgoing:
1. 31.2
2. 69.5

Report growth for every entry below.
1. COc1ccc(/C=N/N=C(/c2ccccc2)c2ccc3nc(-c4ccc(Cl)cc4)[nH]c3c2)cc1
2. CN1CC[C@@H]2[C@@]3(C)CC[C@H](O)C(C)(C)[C@@H]3CC[C@@]2(C)[C@]2(C)CC[C@@]3(CO)CCC(C)(C)C[C@@H]3C12 (stereo partly drawn)
3. Cc1ccc2c(n1)C(=O)C(Cl)=C(Nc1ccc(C)c(C)c1)C2=O
4. CC(Nc1c(C#N)cnc2ccc(-c3cncc(-c4n[nH]c(=O)o4)c3)cc12)c1ccccc1 (stereo not drawn)
5. O=C1Nc2ccc(F)cc2/C1=C\C(=O)c1ccc(NS(=O)(=O)c2ccccc2)cc1
6. COc1cc(C(=O)c2cc(C(C)=O)c3cccc(C)n23)cc(OC)c1OC
7. CCOC(=O)C(=O)Nc1ccc2c(ccn2C(=O)c2cccc(F)c2)c1

Outgoing:
[75, 96.7, -29, -5.14, 93.2, 74.1, 101]

List growth for every entry below, keeping the order given.
1. CC1(C)CC[C@]23CC[C@]4(C)[C@H](CC[C@@H]5[C@@]6(C)CC[C@H](N)C(C)(C)[C@@H]6CC[C@]54C)[C@H]2[C@H]1OC3
2. C#CCOc1ccc(/C=N/Nc2nc(-c3ccc(OC)cc3)cs2)cc1
3. C#C[C@]1(O)CC[C@H]2[C@@H]3CC=C4c5sc(Nc6ncccc6C)nc5CC[C@]4(C)[C@H]3CC[C@@]21C

Outgoing:
1: 96.7; 2: 53.1; 3: 34.9
